assay: Cycloheximide Counterscreen for Small Molecule Inhibitors of Shiga Toxin; settings: cell reporter, cycloheximide protein synthesis inhibition counterscreen; hits give high values; note: read at 38.3 µM for the half of the compounds with a filed dose; 0% is about no effect
About 37,000 (12%) of roughly 300,000 compounds were called active. This is one part of a sample in which actives are shown more often than they occur.
Measured Attribute: max response (%)

>  <Substance Smiles>
COc1ccc(NC(=O)c2sccc2SCC#N)cc1

>  <Unit Text>
%

>  <Value Measured>
40

$$$$
>  <Substance Smiles>
CCOc1ccc(N(CC(=O)Nc2cccc(OC)c2)S(C)(=O)=O)cc1

>  <Unit Text>
%

>  <Value Measured>
27.2

$$$$
>  <Substance Smiles>
O=C(Nc1cccc2ccccc12)N1CCN(Cc2ccc3c(c2)OCO3)CC1

>  <Unit Text>
%

>  <Value Measured>
-0.788

$$$$
>  <Substance Smiles>
COc1ccc(NC(=O)c2sc(N)nc2-c2ccccc2)cc1

>  <Unit Text>
%

>  <Value Measured>
1.95

$$$$
>  <Substance Smiles>
COc1cccc(N(CC(=O)Nc2cccc(F)c2)S(C)(=O)=O)c1

>  <Unit Text>
%

>  <Value Measured>
-5.13

$$$$
>  <Substance Smiles>
CCN(CC)C(=O)c1ccc(NC(=O)c2sccc2-c2ccccc2)cc1

>  <Unit Text>
%

>  <Value Measured>
0.344

$$$$
